B1: TPR t1 (parent)
chain: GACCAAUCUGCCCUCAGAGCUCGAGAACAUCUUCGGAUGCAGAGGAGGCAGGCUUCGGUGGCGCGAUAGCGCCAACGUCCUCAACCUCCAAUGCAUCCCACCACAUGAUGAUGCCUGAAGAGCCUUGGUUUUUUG

Variants of: B1
Assay: polymerase ribozyme fitness, log enrichment relative to wild type (log ratio); higher = more active; in vitro selection for triplet polymerase activity
Classification field. Basis: polymerase ribozyme fitness (log ratio). Definitions: bucket A = under -4, bucket B = from -4 up to -1, bucket C = -1 and over

// below: answered variants
C4G G63U | bucket B
C8G C15U C70U | bucket C
C12U C15A U125G U133A | bucket B
U7C U21C A83G G120A | bucket C
G10C G51A U106A U112A | bucket A
G42A A46U C76U U96G | bucket A
A5U A66U A75G C76A C94A G120A U130G | bucket A
U7A C73A C88G A111U U129G | bucket A

Determine which band this variant sits in: C88U C98A bucket A

Place this variant in its band: C34U C72G bucket B

Sort into band: G61U C73A U78A bucket B

Form field 'band' for A29U G52U U106C G117A A118U C124G bucket B

Input A50G G71A ; output its category bucket B

Reference for the values: the RNAGym collection of RNA variant scans (doi:10.1073/pnas.2313332121)
